# Test system: Ba/F3^T315I cells
# Assay type: cell-based, murine
# SETTINGS: Mus musculus, BaF3, 72 h, read-out: Antiproliferation IC50, Ba/F3^T315I
REPORTED METRIC: pIC50
The value called pIC50 is obtained by taking minus log10 of the concentration in mol/L.

For this compound ( Cc1cn(-c2cc(NC(=O)c3ccc(C)c(Nc4nccc(-c5cccnc5)n4)c3)cc(C(F)(F)F)c2)cn1 [Nilotinib] ), measured pIC50 is 5.84
